Numbers sourced from patent US8541588B2.

The entries below come with measured log10(IC50) values attached.
MEASURED ON: Nav1.7 (or SCN9A) channel; HEK cells stably transfected with hSCN9A (Homo sapiens)
Construct: expressed in transfected cells
TEST METHOD NOTES: Nav1.7 block, PatchXpress 7000 automated whole-cell voltage clamp, estimated IC50 (EIC50)
Type: cell-based
CONDITIONS: estimated IC50; hSCN9A HEK cells, PatchXpress platform; Examples 283-814
Lab note - IC50 converted to log10 from values in nM.

Example results:
# COMPOUND, MEASURED ON, MEASUREMENT KIND, RECORDED NUMBER
rows = [
    ("Cn1cc(-c2cc(Cl)ccc2Oc2ccc(S(=O)(=O)Nc3cscn3)cc2C#N)cn1 [Example 414]", "Nav1.7 (or SCN9A) channel; HEK cells stably transfected with hSCN9A (Homo sapiens)", "log10(IC50)", 3.00),
    ("Cc1nn(C)cc1-c1ccc(Oc2ccc(S(=O)(=O)Nc3nccs3)cc2C#N)cc1 [Example 389]", "Nav1.7 (or SCN9A) channel; HEK cells stably transfected with hSCN9A (Homo sapiens)", "log10(IC50)", 3.04),
    ("N#Cc1cc(S(=O)(=O)Nc2ncc(F)s2)ccc1Oc1ccc(Cl)c(Cn2cccn2)c1 [Example 534]", "Nav1.7 (or SCN9A) channel; HEK cells stably transfected with hSCN9A (Homo sapiens)", "log10(IC50)", 2.70),
    ("N#Cc1cc(S(=O)(=O)Nc2cscn2)ccc1Oc1ccc(Cl)cc1-c1ccnc(N)c1 [Example 392]", "Nav1.7 (or SCN9A) channel; HEK cells stably transfected with hSCN9A (Homo sapiens)", "log10(IC50)", 2.15),
    ("O=S(=O)(Nc1ncns1)c1cc(Cl)c(Oc2ccc(F)cc2-c2cn[nH]c2)cc1F [Example 755]", "Nav1.7 (or SCN9A) channel; HEK cells stably transfected with hSCN9A (Homo sapiens)", "log10(IC50)", 0.38),
]

Input O=S(=O)(Nc1cscn1)c1ccc(Oc2ccc(Cl)cc2-c2cn[nH]c2)c(Cl)c1 [Example 673] . Output log10(IC50): 2.84

Summary for this compound, O=S(=O)(Nc1ccc(F)cn1)c1cc(Cl)c(Oc2ccc(C(F)(F)F)cc2C2CCNCC2)cc1F [Example 800] : log10(IC50) is 1.72

Recorded log10(IC50) (compound O=S(=O)(Nc1ccc(F)cn1)c1cc(Cl)c(Oc2ccc(Cl)cc2C2CCNCC2)cc1F [Example 623] ): 1.66

Notebook: O=S(=O)(Nc1nncs1)c1cc(Cl)c(Oc2ccc(C(F)(F)F)cc2-c2cn[nH]c2)cc1F [Example 764] , log10(IC50) read as 1.48

According to the records, this compound CC(C)(C)n1nccc1-c1cc(Cl)ccc1Oc1ccc(S(=O)(=O)Nc2ncns2)cc1Cl [Example 474] displays log10(IC50) of 1.64

----------
MEASURED ON: Nav1.7 (or SCN9A) channel; HEK cells stably transfected with hSCN9A (Homo sapiens)
Construct: expressed in transfected cells
TEST METHOD NOTES: Nav1.7 block, PatchXpress 7000 automated whole-cell voltage clamp, estimated IC50 (EIC50)
Type: cell-based
CONDITIONS: estimated IC50; hSCN9A HEK cells, PatchXpress platform; Examples 283-814
MEASUREMENT KIND: pIC50
Keep it numeric: pIC50 is minus log10 of the concentration in mol/L.

Example compounds with recorded pIC50:
# COMPOUND, MEASUREMENT KIND, RECORDED NUMBER
records = [
    ("N#Cc1cc(S(=O)(=O)Nc2nccs2)ccc1Oc1ccc(-c2ccccc2)nc1 [Example 646]", "pIC50", 5.55),
    ("Nc1cc(-c2cc(Cl)ccc2Oc2cc(F)c(S(=O)(=O)Nc3ncns3)cc2F)ccn1 [Example 787]", "pIC50", 8.14),
    ("Cn1nc(C(F)(F)F)cc1-c1ccc(Oc2ccc(S(=O)(=O)Nc3ncc(F)s3)cc2C#N)cc1 [Example 387]", "pIC50", 6.85),
    ("Cc1cc(-c2ccccc2Oc2ccc(S(=O)(=O)Nc3ccc(F)cn3)cc2C#N)sn1 [Example 571]", "pIC50", 5.00),
    ("Cc1cc(C(F)(F)F)nn1-c1ccc(Oc2ccc(S(=O)(=O)Nc3nccs3)cc2C#N)c(C(C)C)c1 [Example 356]", "pIC50", 6.92),
]

Form: compound = CC(=O)N1CC(c2cc(Cl)ccc2Oc2ccc(S(=O)(=O)Nc3nccs3)cc2C#N)C1 [Example 640] ; pIC50 = 6.00

Record Cn1nccc1-c1cc(Cl)ccc1Oc1ccc(S(=O)(=O)Nc2ccc(C#N)cn2)cc1C#N [Example 466] . Reported pIC50: 4.44

The recorded pIC50 for COCCn1nccc1-c1cc(Cl)ccc1Oc1ccc(S(=O)(=O)Nc2ncns2)cc1C#N [Example 562] is 7.77

----------
MEASURED ON: Nav1.7 (or SCN9A) channel; HEK cells stably transfected with hSCN9A (Homo sapiens, UniProt Q15858)
Construct: expressed in transfected cells
Sequence (Q15858 whole entry): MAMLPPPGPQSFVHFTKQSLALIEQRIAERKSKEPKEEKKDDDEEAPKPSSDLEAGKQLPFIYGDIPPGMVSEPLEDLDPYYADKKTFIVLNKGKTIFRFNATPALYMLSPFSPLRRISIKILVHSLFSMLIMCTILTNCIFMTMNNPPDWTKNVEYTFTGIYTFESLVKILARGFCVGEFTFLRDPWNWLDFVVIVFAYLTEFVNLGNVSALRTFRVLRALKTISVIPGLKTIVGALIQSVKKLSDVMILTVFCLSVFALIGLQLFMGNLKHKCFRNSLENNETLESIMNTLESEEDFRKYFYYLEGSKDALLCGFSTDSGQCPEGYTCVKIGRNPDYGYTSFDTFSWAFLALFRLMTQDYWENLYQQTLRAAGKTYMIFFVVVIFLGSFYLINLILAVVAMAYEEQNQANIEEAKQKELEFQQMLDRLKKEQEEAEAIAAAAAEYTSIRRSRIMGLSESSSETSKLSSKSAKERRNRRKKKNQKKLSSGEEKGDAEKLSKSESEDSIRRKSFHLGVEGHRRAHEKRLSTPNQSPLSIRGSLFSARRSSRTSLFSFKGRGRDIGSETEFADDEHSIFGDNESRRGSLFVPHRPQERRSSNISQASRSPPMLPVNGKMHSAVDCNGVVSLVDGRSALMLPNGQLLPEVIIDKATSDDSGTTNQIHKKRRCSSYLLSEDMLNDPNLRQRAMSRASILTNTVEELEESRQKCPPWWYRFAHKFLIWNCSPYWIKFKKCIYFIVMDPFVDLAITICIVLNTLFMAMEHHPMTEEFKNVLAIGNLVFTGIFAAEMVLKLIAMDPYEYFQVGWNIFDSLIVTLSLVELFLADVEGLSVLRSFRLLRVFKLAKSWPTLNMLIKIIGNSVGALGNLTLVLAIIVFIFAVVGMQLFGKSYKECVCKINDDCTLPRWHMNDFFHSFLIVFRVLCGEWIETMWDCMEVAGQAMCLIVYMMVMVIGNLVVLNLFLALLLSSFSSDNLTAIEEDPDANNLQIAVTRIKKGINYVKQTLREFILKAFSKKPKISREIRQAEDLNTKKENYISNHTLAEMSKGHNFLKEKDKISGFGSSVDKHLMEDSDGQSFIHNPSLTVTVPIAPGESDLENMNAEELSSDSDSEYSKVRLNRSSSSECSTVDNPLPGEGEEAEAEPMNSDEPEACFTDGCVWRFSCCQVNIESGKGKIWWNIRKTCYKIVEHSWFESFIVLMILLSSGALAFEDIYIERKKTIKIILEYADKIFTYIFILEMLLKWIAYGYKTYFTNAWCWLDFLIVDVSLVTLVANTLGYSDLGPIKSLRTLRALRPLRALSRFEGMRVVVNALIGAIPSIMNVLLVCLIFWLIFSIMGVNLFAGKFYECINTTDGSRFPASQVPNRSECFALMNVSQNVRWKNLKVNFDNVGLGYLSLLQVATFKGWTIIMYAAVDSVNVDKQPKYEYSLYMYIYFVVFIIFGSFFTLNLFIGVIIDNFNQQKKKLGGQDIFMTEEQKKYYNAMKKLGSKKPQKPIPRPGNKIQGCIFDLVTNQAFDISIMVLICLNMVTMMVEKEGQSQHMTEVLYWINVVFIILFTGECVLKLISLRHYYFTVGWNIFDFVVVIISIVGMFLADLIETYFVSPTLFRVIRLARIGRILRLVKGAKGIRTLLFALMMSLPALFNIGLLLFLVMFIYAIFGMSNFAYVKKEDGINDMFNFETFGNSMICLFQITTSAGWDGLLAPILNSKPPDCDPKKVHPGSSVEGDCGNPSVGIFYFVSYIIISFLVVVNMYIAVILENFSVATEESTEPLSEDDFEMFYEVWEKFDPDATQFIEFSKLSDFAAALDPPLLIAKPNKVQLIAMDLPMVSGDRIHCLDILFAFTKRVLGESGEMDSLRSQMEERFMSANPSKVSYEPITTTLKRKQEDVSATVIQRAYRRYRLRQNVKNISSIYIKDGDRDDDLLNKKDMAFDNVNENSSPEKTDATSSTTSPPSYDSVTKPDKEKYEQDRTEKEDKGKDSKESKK
TEST METHOD NOTES: Nav1.7 block, PatchXpress 7000 automated whole-cell voltage clamp, estimated IC50 (EIC50)
Format: cell-based
CONDITIONS: PatchXpress platform; hSCN9A HEK cells held at V1/2 of inactivation; estimated IC50
MEASUREMENT KIND: pIC50
Reminder that pIC50 means the negative base-10 logarithm of the concentration expressed in mol/L.

# MOLECULE, pIC50
measured = [
    ("N#Cc1cc(S(=O)(=O)Nc2ccnc(C(F)(F)F)n2)ccc1Oc1ccccc1-c1ccccc1 [Example 116]", 5.51),
]

Noted for O=S(=O)(Nc1nccs1)c1ccc(Oc2ccc(CN3CCC3)c(F)c2)c(F)c1 [Example 125] : its pIC50 reads 4.64

Entry CC(C)Oc1cccc(-c2cc(F)ccc2Oc2ccc(S(=O)(=O)Nc3ncns3)cc2C#N)c1 [Example 5] — recorded pIC50 = 7.15

Entry Cc1cc(OC(C)C)ccc1-c1ccccc1Oc1ccc(S(=O)(=O)Nc2ncns2)cc1C#N [Example 4] , pIC50 reported as 5.77

Noted for O=S(=O)(Nc1nccs1)c1ccc(Oc2ccc(F)cc2-c2ccn[nH]2)cc1F [Example 213] : its pIC50 reads 5.80

Measured pIC50, CN(C)c1ncc(Oc2ccc(S(=O)(=O)Nc3ncns3)cc2C#N)c(-c2ccc(F)cc2)n1 [Example 8] : 6.35

The recorded pIC50 for entry Cc1nc(-c2ccccc2Oc2ccc(S(=O)(=O)Nc3nccs3)cc2C#N)cs1 [Example 166] equals 5.74

Reported pIC50 of N#Cc1cc(S(=O)(=O)Nc2ncc(Cl)s2)ccc1Oc1ccccc1OCc1ccccc1 [Example 136] : 5.57

Input Cn1nccc1-c1cc(F)ccc1Oc1ccc(S(=O)(=O)Nc2ncns2)cc1C#N [Example 1] . Output pIC50: 7.05

Value of measured pIC50 for the entry O=S(=O)(Nc1nccs1)c1ccc(Oc2cc(C(F)(F)F)nn2-c2ccccc2)c(F)c1 [Example 229] : 6.92

// pIC50 lookup, molecule = O=S(=O)(Nc1ncns1)c1ccc(Oc2cc(C(F)(F)F)nn2-c2ccccc2)c(F)c1 [Example 254] , result: 6.47

Field pIC50 (entry COc1cc(S(=O)(=O)Nc2ncns2)ccc1Oc1ccccc1-c1ccccc1 [Example 262] ) reads 5.88

// pIC50 value for CC(C)c1nn(-c2ccccc2Cl)cc1Oc1ccc(S(=O)(=O)Nc2ncc(Cl)s2)cc1C#N [Example 140] : 5.47

# pIC50 (molecule: O=S(=O)(Nc1nccs1)c1ccc(Oc2ccc(Oc3ccc(F)cc3)cc2)c(F)c1 [Example 124] ) is 4.82

The value of pIC50 measured for the molecule CC(C)(C)n1nc(C(F)(F)F)cc1-c1ccc(Oc2ccc(S(=O)(=O)Nc3nccs3)cc2F)cc1 [Example 245] turned out to be 5.98

// field: pIC50; key: N#Cc1cc(S(=O)(=O)Nc2nccs2)ccc1Oc1ccccc1-c1nnco1 [Example 173] ; value = 5.68

So for N#Cc1cc(Oc2ccccc2-c2ccccc2)ccc1S(=O)(=O)Nc1ncns1 [Example 268] , the logged pIC50 turned out to be 5.51

----------
MEASURED ON: Nav1.7 (or SCN9A) channel; HEK cells stably transfected with hSCN9A (Homo sapiens, UniProt Q15858)
Construct: expressed in transfected cells
TEST METHOD NOTES: Nav1.7 block, PatchXpress 7000 automated whole-cell voltage clamp, estimated IC50 (EIC50)
Type: cell-based
CONDITIONS: estimated IC50; hSCN9A HEK cells, PatchXpress platform; Examples 283-814
IC50 less than 200 nM is Y; IC50 greater than or equal to 200 nM is N.

# COMPOUND, DISCRETE LABEL
records = [
    ("O=S(=O)(Nc1cscn1)c1cc(F)c(Oc2ccc(Cl)cc2-c2cn[nH]c2)cc1F [Example 605]", "Y"),
    ("N#Cc1cc(S(=O)(=O)Nc2cscn2)ccc1Oc1ccc(C(F)(F)F)cc1-c1cn[nH]c1 [Example 598]", "N"),
    ("N#Cc1cc(S(=O)(=O)Nc2ccc(F)cn2)ccc1Oc1ccc(C(F)(F)F)cc1-c1cn[nH]c1 [Example 315]", "N"),
]

Now, please, on to the next compound.
State whether 200 nM exceeds IC50 recorded for O=S(=O)(Nc1ncns1)c1cc(Cl)c(Oc2ccc(F)cc2-c2ccn[nH]2)cc1F [Example 620] .
Y
